study-target: Transcriptional activator Myb (Homo sapiens)
assay-remarks: ATG_Myb_CIS: Attagene CIS-FACTORIAL HepG2 Assay for human Myeloblastosis (Myb) Proto-Oncogene Transcription Factor (AID 2282986)
recorded-conditions: HepG2 Attagene CIS-FACTORIAL Myb reporter transcription; actives raise or lower the signal
Calls of active or inactive are those of the source. Rule for the calls: active = hit-call score of the fitted dose curve at least 0.9, where 1 is the maximum; inactive = score below 0.9.
assay-metric: outcome

Sample answers from the record:
compound | outcome
CC/C(=C\C(=N/O)C(N)=O)C(C)[N+](=O)[O-] (stereo unspecified) | inactive
CCCN(C1CCN(C(=O)C2CCNCC2)CC1)[C@@H]1CCc2ccc(OC)cc2C1 | inactive
Cc1ccc(O)cc1 | inactive
CCOC(=O)COc1ccc2c(c1)CC(NCC(O)c1cccc(Cl)c1)CC2 (stereo unspecified) | inactive
CC(C)(O)c1coc(S(=O)(=O)NC(=O)Nc2c3c(cc4c2CCC4)CCC3)c1 | inactive

# input for lookup
Look at this compound and give its reported outcome. "Clc1nc(Cl)c(Cl)c(Cl)c1Cl"
inactive
